Where do these numbers come from? They come from PubChem BioAssay AID1963854.

Test system: 186277-243-T-J2-PDC complex spheroid viability
METHOD NOTES: Anticancer human tumor 186277-243-T-J2-PDC patient-derived colon adenocarcinoma cell line growth inhibition [POLQ]; active = viability on the fitted dose curve at most 10% of control; inactive = the rest
ASSAY CONDITIONS: second compound 0.1 µM; first compound 0.1 µM
Procedure: Multicellular complex tumor spheroid response to Polymerase (POL) inhibitors (novobiocin, ART-558, RP6685) in combination with a variety of drugs and investigational agents in selected tumor cell lines The POL inhibitors (novobiocin, ART-558, and RP6685) were evaluated both individually and in combination with standard of care and investigational anticancer small molecules within a complex spheroid model of solid tumors. . […]
Lab note: assign the record to one of active, inactive

MOLECULE: C=CCn1c(=O)c2cnc(Nc3ccc(N4CCN(C)CC4)cc3)nc2n1-c1cccc(C(C)(C)O)n1 + COC1C(OC(N)=O)C(O)C(Oc2ccc3c(O)c(NC(=O)c4ccc(O)c(CC=C(C)C)c4)c(=O)oc3c2C)OC1(C)C
CLASS ASSIGNMENT: inactive
--
MOLECULE: C=CC(=O)N1CCN(c2nc(=O)n(-c3c(C)ccnc3C(C)C)c3nc(-c4c(O)cccc4F)c(F)cc23)C(C)C1 (stereo not given) + Nc1ccc(C#CCN(C(=O)Cc2ncc(C(F)(F)F)cc2C(F)(F)F)c2ccc(F)cc2)nn1
CLASS ASSIGNMENT: inactive
--
MOLECULE: CCc1cc2c(N3CCc4c(cc(Cn5ccnc5)cc4-c4cn(C)nc4C(F)(F)F)C3=O)cc(C)nc2c(OC)n1 + Nc1ccc(C#CCN(C(=O)Cc2ncc(C(F)(F)F)cc2C(F)(F)F)c2ccc(F)cc2)nn1
CLASS ASSIGNMENT: inactive
--
MOLECULE: CCc1c2c(nc3ccc(O)cc13)-c1cc3c(c(=O)n1C2)COC(=O)[C@]3(O)CC + Cc1cccc(N(C)C(=O)C2C(O)CCN2c2nc(C)cc(C(F)(F)F)c2C#N)c1
CLASS ASSIGNMENT: inactive

Problem: Outcome? CC1COCCN1c1cc(C2(O)CC3CCC(C2)O3)c2cnn(-c3ccn[nH]3)c2n1 (stereo not given) + Cc1cccc(N(C)C(=O)C2C(O)CCN2c2nc(C)cc(C(F)(F)F)c2C#N)c1
Result: active

---

Test system: 186277-243-T-J2-PDC complex spheroid viability
METHOD NOTES: Anticancer human tumor 186277-243-T-J2-PDC cell line growth inhibition [POLQ];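 also: spheroids exposed to compounds for seven days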
ASSAY CONDITIONS: curve of first compound; second compound 0.1 µM
pIC50: −log10 of the molar value.
pIC50 values, listed per item

Problem: For CC[C@@]1(O)C(=O)OCc2c1cc1n(c2=O)Cc2cc3c(CN(C)C)c(O)ccc3nc2-1 + COC1C(OC(N)=O)C(O)C(Oc2ccc3c(O)c(NC(=O)c4ccc(O)c(CC=C(C)C)c4)c(=O)oc3c2C)OC1(C)C , what is its reported pIC50?
Result: 7.22

Problem: Let us now turn to CCc1cc2c(N3CCc4c(cc(Cn5ccnc5)cc4-c4cn(C)nc4C(F)(F)F)C3=O)cc(C)nc2c(OC)n1 + Nc1ccc(C#CCN(C(=O)Cc2ncc(C(F)(F)F)cc2C(F)(F)F)c2ccc(F)cc2)nn1
Result: < 5.00

Problem: Please give the result for O=c1[nH]cc(F)c(=O)[nH]1 + Nc1ccc(C#CCN(C(=O)Cc2ncc(C(F)(F)F)cc2C(F)(F)F)c2ccc(F)cc2)nn1 too.
Result: < 5.00

---

Test system: 186277-243-T-J2-PDC complex spheroid viability
METHOD NOTES: Anticancer human tumor 186277-243-T-J2-PDC cell line growth inhibition [POLQ];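 also: spheroids exposed to compounds for seven days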
ASSAY CONDITIONS: curve of first compound; second compound 0.0316 µM
pIC50: −log10 of the molar value.
Classify as follows. Reported pIC50 greater than or equal to 6: Met. Reported pIC50 below: Not met.

These recorded examples may help you get a feel for the data.
MOLECULE: C=CC(=O)N1CCN(c2nc(=O)n(-c3c(C)ccnc3C(C)C)c3nc(-c4c(O)cccc4F)c(F)cc23)C(C)C1 (stereo unspecified) + Cc1cccc(N(C)C(=O)C2C(O)CCN2c2nc(C)cc(C(F)(F)F)c2C#N)c1
CLASS ASSIGNMENT: Not met

MOLECULE: CC1COCCN1c1cc(-c2ccnn2C)c2ccnc(-c3ccn[nH]3)c2n1 (stereo unspecified) + COC1C(OC(N)=O)C(O)C(Oc2ccc3c(O)c(NC(=O)c4ccc(O)c(CC=C(C)C)c4)c(=O)oc3c2C)OC1(C)C
CLASS ASSIGNMENT: Met

MOLECULE: CC1COCCN1c1cc(C2(O)CC3CCC(C2)O3)c2cnn(-c3ccn[nH]3)c2n1 (stereo unspecified) + Cc1cccc(N(C)C(=O)C2C(O)CCN2c2nc(C)cc(C(F)(F)F)c2C#N)c1
CLASS ASSIGNMENT: Met

MOLECULE: CNCc1ccc(-c2[nH]c3cc(F)cc4c3c2CCNC4=O)cc1 + COC1C(OC(N)=O)C(O)C(Oc2ccc3c(O)c(NC(=O)c4ccc(O)c(CC=C(C)C)c4)c(=O)oc3c2C)OC1(C)C
CLASS ASSIGNMENT: Not met

MOLECULE: O=c1[nH]cc(F)c(=O)[nH]1 + COC1C(OC(N)=O)C(O)C(Oc2ccc3c(O)c(NC(=O)c4ccc(O)c(CC=C(C)C)c4)c(=O)oc3c2C)OC1(C)C
CLASS ASSIGNMENT: Not met

Problem: Record CNCc1ccc(-c2[nH]c3cc(F)cc4c3c2CCNC4=O)cc1 + Nc1ccc(C#CCN(C(=O)Cc2ncc(C(F)(F)F)cc2C(F)(F)F)c2ccc(F)cc2)nn1 ; criterion: pIC50 no lower than 6. Met?
Result: Not met

Problem: # repeat for COc1ccc([C@@H](O)c2cc(-c3ncnc4cc(N5CCOCC5)ccc34)c(F)cc2Cl)nn1 + Cc1cccc(N(C)C(=O)C2C(O)CCN2c2nc(C)cc(C(F)(F)F)c2C#N)c1
Result: Not met

---

Tested on: 186277-243-T-J2-PDC complex spheroid viability
METHOD NOTES: Anticancer human tumor 186277-243-T-J2-PDC cell line growth inhibition [POLQ]; active = viability on the fitted dose curve at most 10% of control; inactive = the rest;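 also: spheroids exposed to compounds for seven days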
ASSAY CONDITIONS: second compound 0.1 µM; first compound 0.316 µM
Output constraint: value belongs to Yes = active, No = inactive

COMPOUND: Nc1ccn(C2OC(CO)C(O)C2(F)F)c(=O)n1 (stereo not given) + Cc1cccc(N(C)C(=O)C2C(O)CCN2c2nc(C)cc(C(F)(F)F)c2C#N)c1
TARGET DESC: 186277-243-T-J2-PDC complex spheroid viability
CLASS ASSIGNMENT: Yes
//
COMPOUND: CNCc1ccc(-c2[nH]c3cc(F)cc4c3c2CCNC4=O)cc1 + Cc1cccc(N(C)C(=O)C2C(O)CCN2c2nc(C)cc(C(F)(F)F)c2C#N)c1
TARGET DESC: 186277-243-T-J2-PDC complex spheroid viability
CLASS ASSIGNMENT: No
//
COMPOUND: C=CC(=O)N1CCN(c2nc(=O)n(-c3c(C)ccnc3C(C)C)c3nc(-c4c(O)cccc4F)c(F)cc23)C(C)C1 (stereo not given) + COC1C(OC(N)=O)C(O)C(Oc2ccc3c(O)c(NC(=O)c4ccc(O)c(CC=C(C)C)c4)c(=O)oc3c2C)OC1(C)C
TARGET DESC: 186277-243-T-J2-PDC complex spheroid viability
CLASS ASSIGNMENT: No
//
COMPOUND: O=C(c1cc(Cc2n[nH]c(=O)c3ccccc23)ccc1F)N1CCN(C(=O)C2CC2)CC1 + COC1C(OC(N)=O)C(O)C(Oc2ccc3c(O)c(NC(=O)c4ccc(O)c(CC=C(C)C)c4)c(=O)oc3c2C)OC1(C)C
TARGET DESC: 186277-243-T-J2-PDC complex spheroid viability
CLASS ASSIGNMENT: No
//
COMPOUND: CCCS(=O)(=O)Nc1ccc(F)c(C(=O)c2c[nH]c3ncc(-c4ccc(Cl)cc4)cc23)c1F + Nc1ccc(C#CCN(C(=O)Cc2ncc(C(F)(F)F)cc2C(F)(F)F)c2ccc(F)cc2)nn1
TARGET DESC: 186277-243-T-J2-PDC complex spheroid viability
CLASS ASSIGNMENT: No
//
COMPOUND: CC1COCCN1c1cc(C2(O)CC3CCC(C2)O3)c2cnn(-c3ccn[nH]3)c2n1 (stereo not given) + Nc1ccc(C#CCN(C(=O)Cc2ncc(C(F)(F)F)cc2C(F)(F)F)c2ccc(F)cc2)nn1
TARGET DESC: 186277-243-T-J2-PDC complex spheroid viability
CLASS ASSIGNMENT: Yes

Problem: Call for entry CC1COCCN1c1cc(-c2ccnn2C)c2ccnc(-c3ccn[nH]3)c2n1 (stereo not given) + COC1C(OC(N)=O)C(O)C(Oc2ccc3c(O)c(NC(=O)c4ccc(O)c(CC=C(C)C)c4)c(=O)oc3c2C)OC1(C)C :
Result: Yes

Problem: For O=C(Nc1ccc(O)c(NS(=O)(=O)c2ccc(F)cc2)c1)c1ccc(-c2ccccc2)cc1 + Nc1ccc(C#CCN(C(=O)Cc2ncc(C(F)(F)F)cc2C(F)(F)F)c2ccc(F)cc2)nn1 then?
Result: No

Problem: Same for CC(C)n1c(=O)n(C)c2cnc3cc(F)c(-c4ccc(OCCCN5CCCCC5)nc4)cc3c21 + COC1C(OC(N)=O)C(O)C(Oc2ccc3c(O)c(NC(=O)c4ccc(O)c(CC=C(C)C)c4)c(=O)oc3c2C)OC1(C)C
Result: No
